target: α1d-AR (Homo sapiens, UniProt P25100)
Sequence (P25100 whole entry): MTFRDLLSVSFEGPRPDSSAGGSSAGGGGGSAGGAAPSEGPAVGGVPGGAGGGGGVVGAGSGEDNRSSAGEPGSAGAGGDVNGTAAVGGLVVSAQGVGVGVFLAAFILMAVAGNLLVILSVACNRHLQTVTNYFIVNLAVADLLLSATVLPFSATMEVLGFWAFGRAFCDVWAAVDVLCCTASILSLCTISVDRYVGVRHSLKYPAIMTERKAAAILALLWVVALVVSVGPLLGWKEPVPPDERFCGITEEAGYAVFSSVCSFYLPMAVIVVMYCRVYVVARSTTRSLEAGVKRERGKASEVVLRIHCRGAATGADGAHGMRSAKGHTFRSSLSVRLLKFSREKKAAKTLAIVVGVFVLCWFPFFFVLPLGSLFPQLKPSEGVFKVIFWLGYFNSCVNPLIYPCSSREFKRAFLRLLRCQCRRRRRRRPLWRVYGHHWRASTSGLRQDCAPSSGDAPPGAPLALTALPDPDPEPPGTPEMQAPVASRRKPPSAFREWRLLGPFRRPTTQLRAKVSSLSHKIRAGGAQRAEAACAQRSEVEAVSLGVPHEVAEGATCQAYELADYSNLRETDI
pKi: −log10 of the molar value.
# if value of pKi reaches 8, tag Condition met; if it stays below, tag Condition not met

Some solved entries appear below for comparison.
INSERT INTO results (compound_structure_string, category) VALUES
  ('CC(C)Oc1ccccc1N1CCN([C@H]2CC[C@H](NC(=O)Nc3ccc(OC(F)(F)F)cc3)CC2)CC1', 'Condition not met'),
  ('COc1ccc(NC(=O)N[C@H]2CC[C@H](N3CCN(c4ccccc4OC(C)C)CC3)CC2)c(C)c1', 'Condition not met'),
  ('COc1ccc(NC(=O)N[C@H]2CC[C@H](N3CCN(c4ccccc4OC(C)C)CC3)CC2)cc1Cl', 'Condition met');

*Q* // inclusive: pKi at least 8? input: "COc1ccc(NC(=O)N[C@H]2CC[C@@H](N3CCN(c4ccccc4OC(C)C)CC3)CC2)c(OC)c1"
*A* Condition not met

*Q* // inclusive: pKi at least 8? input: "CC(C)Oc1ccccc1N1CCN([C@H]2CC[C@H](NC(=O)Nc3c(Cl)cc(Cl)cc3Cl)CC2)CC1"
*A* Condition met
